- Assay Protocol: Plasma milrinone levels (HPLC) during inhaled milrinone after CF-LVAD implantation
- Type: in vivo, human
- Conditions Used: human, plasma, inhaled, 6 mg/h, Table 3 median of patients; 12 hrs; read-out: Plasma milrinone level, Median, 12 hrs
Readout Name: concentration at 12 h (ng/mL)
Response body: numeric value in ng/mL, unit text excluded.

Quote concentration at 12 h reported for Cc1[nH]c(=O)c(C#N)cc1-c1ccncc1 please.
160

----------
- Assay Protocol: Plasma milrinone levels (HPLC) during inhaled milrinone after CF-LVAD implantation
- Format: in vivo, human
- Conditions Used: human, plasma, inhaled, 6 mg/h, Table 3 mean of patients; 8 hrs; read-out: Plasma milrinone level, Mean, 8 hrs
Readout Name: concentration at 8 h (ng/mL)
The answer is to be given in ng/mL; state only the numeric part.

Output measured concentration at 8 h for this item: Cc1[nH]c(=O)c(C#N)cc1-c1ccncc1 [inhaled milrinone, milrinone]
213

----------
- Assay Protocol: Plasma milrinone levels (HPLC) during inhaled milrinone after CF-LVAD implantation
- Assay type: in vivo, human
- Conditions Used: human, plasma, inhaled, 6 mg/h; 4 hour; read-out: Mean plasma milrinone levels at 4 hour
Readout Name: concentration at 4 h (ng/mL)
# number only, unit ng/mL dropped from output

Tell me measured concentration at 4 h for Cc1[nH]c(=O)c(C#N)cc1-c1ccncc1 [inhaled milrinone, milrinone] please.
136

----------
- Assay Protocol: Plasma milrinone levels (HPLC) during inhaled milrinone after CF-LVAD implantation
- Format: in vivo, human
- Conditions Used: human, plasma, inhaled, 6 mg/h, Table 3 median of patients; 4 hrs; read-out: Plasma milrinone level, Median, 4 hrs
Readout Name: concentration at 4 h (ng/mL)
Supply the numeric figure in ng/mL, leaving out any unit text.

Answer with the recorded concentration at 4 h of Cc1[nH]c(=O)c(C#N)cc1-c1ccncc1 [inhaled milrinone, milrinone] only.
117

----------
- Assay Protocol: Plasma milrinone levels (HPLC) during inhaled milrinone after CF-LVAD implantation
- Assay type: in vivo, human
- Conditions Used: human, plasma, inhaled, 6 mg/h, Table 3 median of patients; 8 hrs; read-out: Plasma milrinone level, Median, 8 hrs
Readout Name: concentration at 8 h (ng/mL)
Enter your answer as a number in ng/mL; do not include the unit.

Please indicate concentration at 8 h recorded for Cc1[nH]c(=O)c(C#N)cc1-c1ccncc1
227

----------
- Assay Protocol: Plasma milrinone levels (HPLC) during inhaled milrinone after CF-LVAD implantation
- Type: in vivo, human
- Conditions Used: human, plasma, inhaled, 6 mg/h, Table 3 mean of patients; 4 hrs; read-out: Plasma milrinone level, Mean, 4 hrs
Readout Name: concentration at 4 h (ng/mL)
API: value field is a number in ng/mL; no unit string.

Give me measured concentration at 4 h, please, for this molecule: Cc1[nH]c(=O)c(C#N)cc1-c1ccncc1 [inhaled milrinone, milrinone]
149

----------
- Assay Protocol: Plasma milrinone levels (HPLC) during inhaled milrinone after CF-LVAD implantation
- Format: in vivo, human
- Conditions Used: human, plasma, inhaled, 6 mg/h, Table 3 median of patients; 0 hrs; read-out: Plasma milrinone level, Median, 0 hrs
Readout Name: concentration at 0 h

Give concentration at 0 h for the following compound: Cc1[nH]c(=O)c(C#N)cc1-c1ccncc1
75 ng/mL

----------
- Assay Protocol: Plasma milrinone levels (HPLC) during inhaled milrinone after CF-LVAD implantation
- Assay type: in vivo, human
- Conditions Used: human, plasma, inhaled, 6 mg/h; 12 hour; read-out: Mean plasma milrinone levels at 12 hour
Readout Name: concentration at 12 h (ng/mL)
The figure you give is taken to be in ng/mL; do not add the unit.

Output measured concentration at 12 h for this item: Cc1[nH]c(=O)c(C#N)cc1-c1ccncc1
177

----------
- Assay Protocol: Plasma milrinone levels (HPLC) during inhaled milrinone after CF-LVAD implantation
- Type: in vivo, human
- Conditions Used: human, plasma, inhaled, 6 mg/h, Table 3 median of patients; 1 hrs; read-out: Plasma milrinone level, Median, 1 hrs
Readout Name: concentration at 1 h
Write the numeric value and append its unit.

Supply concentration at 1 h value. Item: Cc1[nH]c(=O)c(C#N)cc1-c1ccncc1
114 ng/mL

----------
- Assay Protocol: Plasma milrinone levels (HPLC) during inhaled milrinone after CF-LVAD implantation
- Assay type: in vivo, human
- Conditions Used: human, plasma, inhaled, 6 mg/h; 1 hour; read-out: Mean plasma milrinone levels at 1 hour
Readout Name: concentration at 1 h (ng/mL)
State just the number; it will be interpreted in ng/mL.

Indicate the recorded concentration at 1 h value for this compound: Cc1[nH]c(=O)c(C#N)cc1-c1ccncc1 [inhaled milrinone, milrinone]
111

----------
- Assay Protocol: Plasma milrinone levels (HPLC) during inhaled milrinone after CF-LVAD implantation
- Format: in vivo, human
- Conditions Used: human, plasma, inhaled, 6 mg/h; 8 hour; read-out: Mean plasma milrinone levels at 8 hour
Readout Name: concentration at 8 h (ng/mL)
Dear colleague, please return just the value in ng/mL, with no unit written.

Supply reported concentration at 8 h belonging to this compound: Cc1[nH]c(=O)c(C#N)cc1-c1ccncc1 [inhaled milrinone, milrinone]
205

----------
- Assay Protocol: Plasma milrinone levels (HPLC) during inhaled milrinone after CF-LVAD implantation
- Format: in vivo, human
- Conditions Used: human, plasma, inhaled, 6 mg/h, Table 3 mean of patients; 1 hrs; read-out: Plasma milrinone level, Mean, 1 hrs
Readout Name: concentration at 1 h (ng/mL)
Give the value, in units of ng/mL, as a plain number.

Supply concentration at 1 h value. Item: Cc1[nH]c(=O)c(C#N)cc1-c1ccncc1
133
